Just for reference, ChEMBL document CHEMBL1201862 is where these values come from.

Test system: DMS-114
Assay: NCI tumour cell line growth inhibition, 48 h
The source made the active and inactive calls. Rule as the data show it: active = GI50 up to about 1.1 µM and inactive = higher.
Return exactly one item of True for active, False for inactive

- compound: "O=C(O)CCC(NC(=O)c1ccc(Nc2nc3ccc(C(F)(F)F)cc3nc2-c2ccccc2)cc1)C(=O)O (stereo not drawn)"
  measured-on: "DMS-114"
  class-assignment: "False"

Exam item: Per the records of this test, what outcome belongs to O[C@H]1[C@H](O)[C@@H](O)CN2CC[C@H](O)[C@H]12 [CASTANOSPERMINE] ?
Marked response: False

Exam item: Please indicate how the test categorized O=C(O)CS [THIOGLYCOLIC ACID] .
Marked response: False

Exam item: For CCC(C(=O)O)c1ccc(OCc2ccccc2)cc1 (stereo not drawn) , what call appears in the results of this test?
Marked response: False

Exam item: Record lookup: outcome of this test for "O=CNc1cccc2c3c([nH]c12)CCCCCC3" ?
Marked response: False

Exam item: Tell me the recorded outcome of this test for "COc1ccc(CC#N)c(OCc2ccccc2)c1" .
Marked response: False

Exam item: Tell me the recorded outcome of this test for "N#Cc1c(N)oc2cc3c(C#N)c(N)oc3cc12" .
Marked response: False

Exam item: Outcome? Cc1cc2ncn(-c3nc4ccccc4nc3C(C#N)S(C)(=O)=O)c2cc1C (stereo not drawn)
Marked response: False

---

System: SF-539
Assay: NCI tumour cell line growth inhibition, 48 h
The source made the active and inactive calls. No stated cut-off is given here; in the data, active = GI50 up to about 1.1 µM and inactive = higher.
test-readout: GI50

Examples from the recorded data:
- molecule: "CCOC(=O)NC(=O)c1cn(CCN2CCN(C(=O)NCCCCCCNC(=O)N3CCN(CCn4cc(C(=O)NC(=O)OCC)c(=O)n(CCN(CC)CC)c4=O)CC3)CC2)c(=O)n(CCC(CC)CC)c1=O"
  GI50: "> 100 µM (inactive)"
- molecule: "CSc1ncc2c(C#N)c3[nH]c4ccccc4n3c(=O)c2n1"
  GI50: "17.3 µM (inactive)"
- molecule: "CC(=O)c1cccc(NC(=O)C(=O)C(C2OC(=O)c3ccccc32)[N+](=O)[O-])c1 (stereo not given)"
  GI50: "> 100 µM (inactive)"
- molecule: "Cc1cccc(/C=N/NC(=S)NC(C)(C)C)n1"
  GI50: "> 100 µM (inactive)"
- molecule: "CC(=O)Nc1ccc(C2CC(c3ccc([N+](=O)[O-])cc3)=Nc3ccccc3S2)cc1 (stereo not given)"
  GI50: "17.7 µM (inactive)"

Count: 3. Required value per item: GI50.
1. N#CCC1COc2ccccc2O1 (stereo not given)
2. CC(C)(C)c1cc(-c2cc(C(C)(C)C)[nH]n2)[nH]n1
3. N#Cc1ccc2[nH]c3c(c2c1)CC(=O)Nc1ccccc1-3 [PAULLONE 2]

Marked response:
["> 10 µM (inactive)", "> 100 µM (inactive)", "> 100 µM (inactive)"]

For the 6 molecules below, give their GI50 values.
1. O=C(N[C@H](CO)[C@H](O)c1ccc([N+](=O)[O-])cc1)C(Cl)Cl [CHLORAMPHENICOL]
2. O=C(O)c1ccc(/N=N/c2cc(S(=O)(=O)O)c3cccnc3c2O)cc1
3. CN(C)c1ccc(/C=N\NC(=O)CSCC(=O)N/N=C/c2ccc(N(C)C)cc2)cc1
4. Cc1ccc(C(=O)N(C2CCCCC2)C2CCCCC2)cc1/N=N/N(C)C
5. N#C[BH2-][n+]1ccc(C(=O)NNCc2ccccc2)cc1
6. Cc1ccc2[nH]c(=O)c(C(C#N)c3ccccc3)nc2c1 (stereo not given)

Marked response:
1. > 100 µM (inactive)
2. > 100 µM (inactive)
3. 37.3 µM (inactive)
4. 19.5 µM (inactive)
5. > 100 µM (inactive)
6. 46.7 µM (inactive)

Batch request: GI50 for each of the following molecules.
1. COc1cc2c3c(c1OC)C1(C=CC(=O)C=C1)CC3NCC2 (stereo not given)
2. CC(=O)O[C@H]1C(=O)[C@@]2(C)[C@H]([C@H](OC(=O)C3CCCCC3)[C@]3(O)C[C@H](OC(=O)[C@H](O)[C@@H](NC(=O)OC(C)(C)C)c4ccccc4)C(C)=C1C3(C)C)[C@]1(OC(C)=O)CO[C@@H]1C[C@@H]2O
3. CCOC(=O)C1C(c2ccccc2)=C(c2ccccc2)C(c2ccccc2)=C1c1ccccc1
4. [N-]=[N+]=C1CNC(=O)NC1=O

Marked response:
1: > 100 µM (inactive); 2: 0.00298 µM (active); 3: 29.7 µM (inactive); 4: > 100 µM (inactive)

Could I get GI50 for every one of these entries?
1. Cc1ccc(NC(=O)CC(=O)n2nc(C)c(/N=N/c3ccccc3C(=O)O)c2C)cc1
2. COc1cc2c3cc1Oc1c(O)c(OC)cc4c1[C@H](Cc1ccc(cc1)Oc1cc(ccc1O)C[C@H]3N(C)CC2)N(C)CC4

Marked response:
1. > 100 µM (inactive)
2. 3.23 µM (inactive)
